Answer each item with its documented cell viability.
# Test system: HCT116
# measurement_description: cell viability (CellTiter-Glo) relative to plate median (fraction of plate median); higher = more viable cells
# assay_context: 5 µM; treatment time 24 h; reporter: TCF4/Wnt
Enter a number only.

Quick check: cell viability of C=C(CC)C(=O)c1ccc(OCC(=O)O)c(Cl)c1Cl ?
1.01

Quick check: cell viability of O=c1c(O)cc([C@H]2Oc3cc(O)cc(O)c3C[C@H]2O)cc2c([C@H]3Oc4cc(O)cc(O)c4C[C@H]3O)cc(O)c(O)c12 ?
1.01

Quick check: cell viability of COc1c(-c2coc3cc4c(cc3c2=O)CC(OC(C)=O)C(C)(C)O4)ccc2c1C=CC(C)(C)O2 (centres undefined) ?
0.887

Quick check: cell viability of COc1ccc(CN(CCN(C)C)c2ccccn2)cc1 ?
1.01

Quick check: cell viability of CC(=O)O[C@@H]1CC2C(C)(C)[C@H](O)C[C@H](O)[C@@]2(C)C2CC[C@]3(C)C(=CC(=O)O[C@@H]3c3ccoc3)[C@]21C (some centres undefined) ?
0.982

Quick check: cell viability of C=CC[C@@H]1/C=C(\C)C[C@H](C)C[C@H](OC)[C@H]2O[C@@](O)(C(=O)C(=O)N3CCCC[C@H]3C(=O)O[C@H](/C(C)=C/[C@@H]3CC[C@@H](O)[C@H](OC)C3)[C@H](C)[C@@H](O)CC1=O)[C@H](C)C[C@@H]2OC ?
1.05

Quick check: cell viability of OC(CCN1CCCCC1)(c1ccccc1)c1ccccc1 ?
0.916

Quick check: cell viability of CC(C)(C)NC[C@H](O)COc1nsnc1N1CCOCC1 ?
0.992

Quick check: cell viability of O=c1c(O)c(-c2ccc(O)c(O)c2)oc2cc(O)ccc12 ?
0.948

###

# Test system: DLD1
# measurement_description: cell viability (CellTiter-Glo) relative to plate median (fraction of plate median); higher = more viable cells
# assay_context: 5 µM; treatment time 24 h; reporter: 7TFP
Answer each item with its documented cell viability.
Enter a number only.

Quick check: cell viability of CC(C)CCC[C@@H](C)[C@H]1CC[C@H]2[C@@H]3CC(=O)[C@H]4C[C@@H](O)CC[C@]4(C)[C@H]3CC[C@]12C ?
0.985

Quick check: cell viability of CC(C)(S)[C@@H](N)C(=O)O ?
0.991

Quick check: cell viability of CN(C(=O)CN(CCO)CC(=O)N(C)C(C)(C)Cc1ccccc1)C(C)(C)Cc1ccccc1 ?
1.01

Quick check: cell viability of COC(=O)C[C@H]1C(C)(C)C(=O)[C@@H]2CC3=C(CC[C@]4(C)C3=CC(=O)O[C@H]4c3ccoc3)[C@@]1(C)C2=O ?
0.96

Quick check: cell viability of C[C@H](CCC(=O)O)[C@H]1CC[C@H]2[C@@H]3[C@H](O)C[C@@H]4C[C@H](O)CC[C@]4(C)[C@H]3C[C@H](O)[C@]12C ?
0.99

Quick check: cell viability of CO[C@H]1C[C@H](O[C@@H]2/C(C)=C/C[C@@H]3C[C@@H](C[C@]4(CC[C@H](C)[C@@H](C5CCCCC5)O4)O3)OC(=O)[C@@H]3C=C(C)/C(=N/O)[C@H]4OC/C(=C\C=C\[C@@H]2C)[C@]43O)O[C@@H](C)[C@@H]1O ?
0.919

Quick check: cell viability of COc1ccc2c(c1)CC[C@@H]1[C@@H]2CC[C@]2(C)[C@@H](O)CC[C@@H]12 ?
0.928

###

Answer each item with its documented cell viability.
# Test system: HCT116
# measurement_description: cell viability (CellTiter-Glo) relative to plate median (fraction of plate median); higher = more viable cells
# assay_context: 5 µM; treatment time 24 h; reporter: TCF4/Wnt
Enter a number only.

Quick check: cell viability of COc1ccc(-c2cc(C(F)F)nn2-c2ccc(S(N)(=O)=O)cc2)cc1F ?
1.01

Quick check: cell viability of N=C1C=CC(=C(c2ccc(N)cc2)c2ccc(N)cc2)C=C1 ?
0.873

Quick check: cell viability of CC1=CC(=O)c2ccccc2C1=O ?
0.955

Quick check: cell viability of C[C@]12CCC3c4ccc(OC(=O)c5ccccc5)cc4CCC3C1CCC2=O (stereo partly drawn) ?
1.01

Quick check: cell viability of COc1ccc2cc1Oc1ccc(cc1)C[C@H]1c3cc(c(OC)cc3CCN1C)Oc1c(OC)c(OC)cc3c1[C@H](C2)N(C)CC3 ?
0.897

Quick check: cell viability of CC1(C)CC2C1CCC1(C)OC2(C)CCC1O (stereo not drawn) ?
1.1

Quick check: cell viability of CO/N=C1\C[C@]2(C[C@@H]3C[C@@H](C/C=C(\C)C[C@@H](C)/C=C/C=C4\CO[C@@H]5[C@H](O)C(C)=C[C@@H](C(=O)O3)[C@]45O)O2)O[C@H](/C(C)=C/C(C)C)[C@H]1C ?
0.921

Quick check: cell viability of COc1cc(C2Oc3cc([C@H]4Oc5cc(O)cc(O)c5C(=O)[C@@H]4O)ccc3OC2CO)ccc1O (stereo partly drawn) ?
1.12

Quick check: cell viability of CC1(C)S[C@@H]2[C@H](NC(=O)Cc3ccccc3)C(=O)N2[C@H]1C(=O)O ?
0.968

Quick check: cell viability of COc1ccc(C(=O)c2ccccc2O)c(O)c1 ?
0.977

Quick check: cell viability of CC(=O)N[C@@H](Cc1c[nH]c2ccccc12)C(=O)O ?
0.955

Quick check: cell viability of C=CCc1ccccc1OCC(O)CNC(C)C (stereo not drawn) ?
1.04

Quick check: cell viability of CC(C)(CO)C(O)C(=O)NCCCO (stereo not drawn) ?
1.06

Quick check: cell viability of COC1(C)CCC2OC2(C)CCC2C1CC2(C)C (stereo not drawn) ?
0.97

Quick check: cell viability of C[C@@H]1C[C@H]2O[C@@H]2/C=C\C=C\C(=O)Cc2c(Cl)c(O)cc(O)c2C(=O)O1 ?
0.802

Quick check: cell viability of CO[C@H]1C[C@H](O[C@H]2[C@H](C)[C@@H](O[C@@H]3O[C@H](C)C[C@H](N(C)C)[C@H]3OC(C)=O)[C@@H](C)C[C@@]3(CO3)C(=O)[C@H](C)[C@@H](OC(C)=O)[C@@H](C)[C@@H](C)OC(=O)[C@@H]2C)O[C@@H](C)[C@@H]1OC(C)=O ?
1.01

Quick check: cell viability of CC(=O)NCC(=O)c1c[nH]c2ccccc12 ?
0.983

Quick check: cell viability of CC(C)[C@@H]1CC[C@@H](C)CC1=O ?
1.16

Quick check: cell viability of CCC1(C)OC(=O)N(C)C1=O (stereo not drawn) ?
0.873

Quick check: cell viability of COc1cc2cc3c4cc(OC)c(OC)cc4cc[n+]3c(C)c2cc1OC ?
0.959

Quick check: cell viability of CC(=O)O[C@H]1CC[C@]2(C)[C@H]3CC=C4[C@@H]5CC(C)(C)CC[C@]5(C)CC[C@@]4(C)[C@]3(C)CC[C@H]2C1(C)C [beta-AMYRIN ACETATE] ?
0.965

Quick check: cell viability of Oc1c(Cl)cc(Cl)c2cccnc12 ?
1.02

Quick check: cell viability of O=C1C=C2CC3(O)COc4c(ccc(O)c4O)C3=C2C=C1O (stereo not drawn) ?
1.04

Quick check: cell viability of CC[C@]12CCCN3CCc4c(n(c5ccccc45)[C@@](O)(C(=O)OC)C1)[C@@H]32 ?
0.953

Quick check: cell viability of CS(=O)(=O)c1ccc(C2=C(c3ccccc3)C(=O)OC2)cc1 ?
1.04

Quick check: cell viability of CCn1cc(C(=O)O)c(=O)c2cc(F)c(N3CCN(C)CC3)cc21 ?
1.01

Quick check: cell viability of S=P(N1CC1)(N1CC1)N1CC1 ?
0.928

Quick check: cell viability of CC(C)[C@H](NC(=O)[C@H](Cc1ccc(O)cc1)NC(=O)[C@@H](NC(=O)C(F)(F)F)C(C)C)C(=O)O ?
0.94

Quick check: cell viability of CC(C)C[C@@H]1NC(=O)CNC1=O ?
1.05

Quick check: cell viability of N[C@@H](C(=O)O)[C@@H](O)[C@H](O)[C@H](O)CO ?
0.95

Quick check: cell viability of CCN(CC)CCOc1ccc(C(=C(Cl)c2ccccc2)c2ccccc2)cc1 ?
0.971

Quick check: cell viability of CN1CCN(C(c2ccccc2)c2ccccc2)CC1 ?
0.953

Quick check: cell viability of COc1cccc2c1C(=O)c1c(O)c3c(c(O)c1C2=O)C[C@@](O)(C(C)=O)C[C@@H]3O[C@H]1C[C@H](N)[C@H](O)[C@H](C)O1 ?
0.575

Quick check: cell viability of COC(=O)c1c(OC)cc2c(c1C)Oc1c(Cl)c(OC(C)=O)c(Cl)c(C)c1C(=O)O2 ?
1.02

Quick check: cell viability of Cc1cc(C(C)(C)C)c(O)c(C(C)(C)C)c1 ?
0.925

Quick check: cell viability of O=c1oc(CO)c(CO)c2cccc(O)c12 [8-hydroxy-3,4-bis-(hydroxymethyl)-isocumarin] ?
0.981

Quick check: cell viability of CC(C)OC(=O)C(C)(C)Oc1ccc(C(=O)c2ccc(Cl)cc2)cc1 ?
1.04

Quick check: cell viability of NCC[C@H](O)C(=O)N[C@@H]1C[C@H](N)[C@@H](O[C@H]2O[C@H](CN)[C@@H](O)[C@H](O)[C@H]2O)[C@H](O)[C@H]1O[C@H]1O[C@H](CO)[C@@H](O)[C@H](N)[C@H]1O ?
1

Just for reference, the supplement of paper PMC6522484 is where these values come from.
